Exercise: state measured inhibition for each of the molecules provided.
molecular target: Neuropilin-1 (Homo sapiens); assay: blockers of CendR peptide binding to NRP-1 – biochemical, FP and AlphaScreen panel, dose response (AID 651650); conditions: NRP-1 b1b2 / RPARPAR peptide binding, FP or AlphaScreen; run 1, at 100 µM (top of the series)
One number for each entry, in %.

MOLECULE	UNITS OF MEASURE	MEASURED
O=C1CSC(c2cn(-c3ccccc3)nc2-c2cccs2)N1CC1CCCO1 (centres undefined)	%	73.3

Field: inhibition. Fill in for each record below.
1. Cc1ccc(C(=O)N/C(=C\c2sccc2C)C(=O)NCc2ccco2)cc1
2. O=C(CSc1nnc(Cc2ccccc2)n1Cc1ccccc1)NCc1ccco1
3. Cc1ccc(C)c(-n2c(SCC(=O)NC(C(=O)O)C(C)C)nnc2-c2cccc(Cl)c2)c1 (centres undefined)

Result ::
[53.9, 8.68, 46.2]
